Each recorded value in this set is attributed to patent US8772480B2.

# tested-target: ProfilerPro Kinase Selectivity Assay Kit kinases (Homo sapiens)
# Type: biochemical
# run-parameters: AKT1; 1 μM compound concentration
# maps each entry to its POC (Percent of control) AKT1
Give the number; POC is assumed, so skip it.

Example entries begin here.
| smiles-representation | tested-target | unit-string | numeric-value |
| --- | --- | --- | --- |
| c1cnc(Nc2cccc3[nH]ccc23)c(-c2ncnc3[nH]cnc23)c1 | ProfilerPro Kinase Selectivity Assay Kit kinases (Homo sapiens) | POC | 94 |
| CCc1cnc(Nc2ccc(OC)nc2)c(-c2nc(C)nc3[nH]cnc23)c1 | ProfilerPro Kinase Selectivity Assay Kit kinases (Homo sapiens) | POC | 109 |
| Cc1nc(N)nc(-c2cccnc2Nc2cccc3[nH]ccc23)n1 | ProfilerPro Kinase Selectivity Assay Kit kinases (Homo sapiens) | POC | 102 |
| Cc1nc(-c2cccnc2Nc2cccc3[nH]ncc23)c2nc[nH]c2n1 | ProfilerPro Kinase Selectivity Assay Kit kinases (Homo sapiens) | POC | 102 |
| Cc1cnc(Nc2cccc3[nH]ccc23)c(-c2nc(C)nc(N)n2)c1 | ProfilerPro Kinase Selectivity Assay Kit kinases (Homo sapiens) | POC | 93 |

Now for another entry.
Simply: `COc1ccc(Nc2ncccc2-c2ncnc3[nH]cnc23)cn1` , ProfilerPro Kinase Selectivity Assay Kit kinases (Homo sapiens), POC (Percent of control) AKT1 = 105
